Attribution: paper PMC8812549

Assay: Parallel artificial membrane permeability assay
Format: in vitro ADME
Conditions: passive permeability, pH 7.4
metric: PAMPA

// query PAMPA value for entry Clc1cc(CN(C2CCNCC2)C2CC(c3ccc(Br)cc3)C2)ccc1Br (stereo not drawn)
32 1e^−6 cm/s

// query PAMPA value for entry Cc1ccc(C2CC(N(Cc3ccc(Br)c(Cl)c3)C3CCCNCC3)C2)cc1 (stereo not drawn)
665.84 1e^−6 cm/s

// query PAMPA value for entry Cc1ccc(C2CC(N(Cc3ccc(Br)c(Cl)c3)C3CCN(C)CC3)C2)cc1 (stereo not drawn)
274.27 1e^−6 cm/s

// query PAMPA value for entry Cc1ccc(C2CC(N(Cc3ccc(Br)c(Cl)c3)C3CCOCC3)C2)cc1 (stereo not drawn)
<6.4 1e^−6 cm/s

// query PAMPA value for entry Cc1cccc(C2CC(N(Cc3ccc(Br)c(Cl)c3)C3CCNCC3)C2)c1 (stereo not drawn)
265 1e^−6 cm/s

// query PAMPA value for entry CC(=O)N1CCC(N(Cc2ccc(Br)c(Cl)c2)C2CC(c3ccc(C)cc3)C2)CC1 (stereo not drawn)
1909 1e^−6 cm/s

// query PAMPA value for entry Cc1ccc(C2CC(N(Cc3ccc(Br)c(Cl)c3)C3CC4CNC3C4)C2)cc1 (stereo not drawn)
122.99 1e^−6 cm/s

// query PAMPA value for entry Cc1ccc(C2CC(N(Cc3ccc(Br)c(Cl)c3)C3CCNCC3)C2)cc1 (stereo not drawn)
806 1e^−6 cm/s

// query PAMPA value for entry Clc1cc(CN(C2CCNCC2)C2CC(c3cccc(Br)c3)C2)ccc1Br (stereo not drawn)
14 1e^−6 cm/s

// query PAMPA value for entry Cc1ccc(C2CC(N(Cc3ccc(Br)c(Cl)c3)C3CCN(C(C)C)CC3)C2)cc1 (stereo not drawn)
<23.1 1e^−6 cm/s

// query PAMPA value for entry Cc1ccc(C2CC(N(Cc3ccc(Br)c(Cl)c3)C3CCC(N)CC3)C2)cc1 (stereo not drawn)
818.04 1e^−6 cm/s

// query PAMPA value for entry Fc1ccc(C2CC(N(Cc3ccc(Br)c(Cl)c3)C3CCNCC3)C2)cc1 (stereo not drawn)
398 1e^−6 cm/s
